# protocol_summary: Cytotoxicity against human DU145 cells assessed as viable cells after 24 hrs by MTT assay
# Type: functional, cell-based
# experimental_setup: DU-145, 24 h
Give measured IC50 for each item. Keep answers brief.
Numbers only, in µM.

compound_structure_string | measured_result
COc1c(Br)cc(C/C(=N\OCc2ccccc2)C(=O)NCCCNCCCCNCCCNC(=O)/C(Cc2cc(Br)c(OC)c(Br)c2)=N/OCc2ccccc2)cc1Br | 4

For the next question, use this compound.
Task: Data request, read-out IC50, for CO/N=C(\Cc1cc(Br)c(OC)c(Br)c1)C(=O)NCCCNCCCCNCCCNC(=O)/C(Cc1cc(Br)c(OC)c(Br)c1)=N/OC
Output: 26.2
